The reported measurements were obtained from ChEMBL document CHEMBL3886330.

Target: Glucagon-like peptide 1 receptor (Homo sapiens, UniProt P43220)
Sequence (P43220 whole entry): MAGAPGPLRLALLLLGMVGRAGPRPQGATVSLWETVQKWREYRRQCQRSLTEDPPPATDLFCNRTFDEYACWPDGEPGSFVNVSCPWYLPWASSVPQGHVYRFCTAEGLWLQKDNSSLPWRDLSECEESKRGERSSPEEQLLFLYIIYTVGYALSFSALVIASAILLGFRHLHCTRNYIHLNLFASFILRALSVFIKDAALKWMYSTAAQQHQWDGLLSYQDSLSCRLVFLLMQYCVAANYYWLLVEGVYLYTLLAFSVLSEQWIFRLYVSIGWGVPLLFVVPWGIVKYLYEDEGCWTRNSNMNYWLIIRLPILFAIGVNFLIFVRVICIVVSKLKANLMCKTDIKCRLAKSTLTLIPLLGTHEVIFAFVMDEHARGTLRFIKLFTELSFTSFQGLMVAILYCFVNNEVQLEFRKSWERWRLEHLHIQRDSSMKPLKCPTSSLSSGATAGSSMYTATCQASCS
// NB: equality with 100 nM counts as False; only EC50 strictly below is True

# molecule, label.class
data = [
    ("Cc1nccc(-c2ccc(C[C@H](NC(=O)[C@@H]3Cc4cc5c(cc4CN3S(C)(=O)=O)O[C@@H](c3ccc(OCc4ccc(Cl)c(Cl)c4)cc3)CO5)C(=O)O)cc2)c1C", "False"),
    ("Cc1nccc(-c2ccc(C[C@H](NC(=O)[C@@H]3Cc4cc5c(cc4CN3C(=O)Nc3ccc(Cl)cc3)O[C@@H](c3ccc(OCc4ccc(Cl)c(Cl)c4)cc3)CO5)C(=O)O)cc2)c1C", "True"),
    ("Cc1nc(C(=O)N2Cc3cc4c(cc3C[C@H]2C(=O)N[C@@H](Cc2ccc(Oc3ccnc(C)c3C)cc2)C(=O)O)OC[C@H](c2ccc(OCc3ccc(Cl)c(Cl)c3)cc2)O4)co1", "False"),
    ("N#Cc1ccc(-c2ccc(C[C@H](NC(=O)[C@@H]3Cc4cc5c(cc4CN3Cc3ccccc3C#N)OC(c3ccc(OCc4ccc(Cl)c(Cl)c4)cc3)CO5)C(=O)O)cc2)cc1 (stereo partly specified)", "False"),
    ("CCCNc1nc(C)c(S(=O)(=O)N2Cc3cc4c(cc3C[C@H]2C(=O)N[C@@H](Cc2ccc(-c3ccc(C#N)cc3)cc2)C(=O)O)OCC(c2ccc(OCc3ccc(Cl)c(Cl)c3)cc2)O4)s1 (stereo partly specified)", "True"),
    ("Cc1nc(NC2CCCC2)sc1S(=O)(=O)N1Cc2cc3c(cc2C[C@H]1C(=O)N[C@@H](Cc1ccc(-c2ccc(C#N)cc2)cc1)C(=O)O)OCC(c1ccc(OCc2ccc(Cl)c(Cl)c2)cc1)O3 (stereo partly specified)", "True"),
    ("CC[C@@H](c1ccccc1)N1Cc2cc3c(cc2C[C@H]1C(=O)N[C@@H](Cc1ccc(-c2ccnc(F)c2)cc1)C(=O)O)OC[C@H](c1ccc(OCc2ccc(Cl)c(Cl)c2)cc1)O3", "False"),
    ("CCNc1nc(C)c(S(=O)(=O)N2Cc3cc4c(cc3C[C@H]2C(=O)N[C@@H](Cc2ccc(-c3ccc(Cl)cc3)cc2)C(=O)O)OCC(c2ccc(OCc3ccc(Cl)c(Cl)c3)cc2)O4)s1 (stereo partly specified)", "False"),
    ("CCc1cc(-c2ccc(C[C@H](NC(=O)[C@@H]3Cc4cc5c(cc4CN3[C@@H](CC)c3ccccc3)O[C@@H](c3ccc(OCc4ccc(Cl)c(Cl)c4)cc3)CO5)C(=O)O)cc2)ccn1", "True"),
    ("CC[C@@H](c1ccccc1)N1Cc2cc3c(cc2C[C@H]1C(=O)N[C@@H](Cc1ccc(-c2ccc(C#N)nc2)cc1)C(=O)O)OC[C@H](c1ccc(OCc2ccc(Cl)c(Cl)c2)cc1)O3", "False"),
    ("Cc1nccc(-c2ccc(C[C@H](NC(=O)[C@@H]3Cc4cc5c(cc4CN3C(=O)N[C@H](C)c3ccccc3)O[C@@H](c3ccc(OCc4ccc(Cl)cc4Cl)cc3)CO5)C(=O)O)cc2)c1C", "False"),
    ("CC(=O)Nc1nc(C)c(S(=O)(=O)N2Cc3cc4c(cc3C[C@H]2C(=O)N[C@@H](Cc2ccc(-c3ccnc(C)c3C)cc2)C(=O)O)OC[C@H](c2ccc(OCc3ccc(Cl)c(Cl)c3)cc2)O4)s1", "True"),
    ("N#Cc1ccc(-c2ccc(C[C@H](NC(=O)[C@@H]3Cc4cc5c(cc4CN3C(=O)c3ccccc3)OC(c3ccc(OCc4ccc(Cl)c(Cl)c4)cc3)CN5)C(=O)O)cc2)cc1 (stereo partly specified)", "False"),
    ("CCCc1cc(-c2ccc(C[C@H](NC(=O)[C@@H]3Cc4cc5c(cc4CN3[C@@H](CC)c3ccccc3)O[C@@H](c3ccc(OCc4ccc(Cl)c(Cl)c4)cc3)CO5)C(=O)O)cc2)ccn1", "True"),
    ("Cc1nccc(-c2ccc(C[C@H](NC(=O)[C@@H]3Cc4cc5c(cc4CN3C(=O)c3cnccn3)O[C@@H](c3ccc(OCc4ccc(Cl)c(Cl)c4)cc3)CO5)C(=O)O)cc2)c1C", "False"),
    ("Cc1nc(C(=O)N2Cc3cc4c(cc3C[C@H]2C(=O)N[C@@H](Cc2ccc(-c3ccnc(C)c3C)cc2)C(=O)O)OC[C@H](c2ccc(OCc3ccc(Cl)c(Cl)c3)cc2)O4)c(C(F)(F)F)o1", "True"),
    ("C[C@@H](NC(=O)N1Cc2cc3c(cc2C[C@H]1C(=O)N[C@@H](Cc1ccc(-c2ccc(C#N)cc2)cc1)C(=O)O)OC[C@H](c1ccc(OCc2ccc(Cl)c(Cl)c2)cc1)O3)c1ccccc1", "False"),
    ("Cc1nccc(-c2ccc(C[C@H](NC(=O)[C@@H]3Cc4cc5c(cc4CN3C(=O)c3cccc(Cl)c3)O[C@@H](c3ccc(OCc4ccc(Cl)c(Cl)c4)cc3)CO5)C(=O)O)cc2)c1C", "True"),
    ("Cc1nccc(-c2ccc(C[C@H](NC(=O)[C@@H]3Cc4cc5c(cc4CN3C(=O)c3oc4ccccc4c3C)O[C@@H](c3ccc(OCc4ccc(Cl)c(Cl)c4)cc3)CO5)C(=O)O)cc2)c1C", "False"),
    ("Cc1nccc(Oc2ccc(C[C@H](NC(=O)[C@@H]3Cc4cc5c(cc4CN3C(=O)N[C@H](C)c3ccccc3)O[C@@H](c3ccc(OCc4ccc(Cl)c(Cl)c4)cc3)CO5)C(=O)O)cc2)c1C", "False"),
    ("Cc1nccc(Oc2ccc(C[C@H](NC(=O)[C@@H]3Cc4cc5c(cc4CN3C(=O)OCC(C)C)O[C@@H](c3ccc(OCc4ccc(Cl)c(Cl)c4)cc3)CO5)C(=O)O)cc2)c1C", "False"),
]
